molecular target: ArntbHLH-C/EBP (Homo sapiens (Arnt isoform variant 3) / …, UniProt P27540-2 65-130+=RIR+P05554:317-345, internal_change); assay: fluorescence anisotropy; Buffer C (no additives, 1.0 ug/mL poly dI-dC); single isotherm, plateau not reached; Hill ~2; Buffer B: 100 mM Tris pH 7.4, 150 mM NaCl, 1 mM EDTA, 200 mM guanidine-HCl, 20% glycerol, 0.1 mg/mL acetylated BSA, 100 uM bp calf thymus DNA; 1 nM duplex; overnight 4 C then 22 C. Buffer C: 100 mM Tris pH 7.4, 150 mM NaCl, 1 mM EDTA, 1.0 ug/mL poly dI-dC. Buffer A: phosphate pH 7.4, 150 mM NaCl, …; details: protein: recombinant; (pET-28A(+), TALON purified); chain copies: 2; label: 5' 6-FAM on one strand; 24-mer duplex
Sequence (P27540 other isoform, or with tags, fused parts or gaps): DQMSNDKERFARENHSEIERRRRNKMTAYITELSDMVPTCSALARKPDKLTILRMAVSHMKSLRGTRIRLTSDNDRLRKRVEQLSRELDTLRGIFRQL
quantity-measured: Kd

In: Bench note: what Kd did E-box 24-mer duplex (dsDNA) DNA 1: TGCAGGAATCACGTGATGAAGGTT DNA 2: AACCTTCATCACGTGATTCCTGCA show?
Out: ~350 nM
